Measured LD50 accompanies every entry in the list below.
- Test system: Oryctolagus sp.
- condition-notes: acute; dermal; New Zealand
test-readout: LD50

- C=C1C2CCC(C2)C1(C)C (centres undefined): > 2500 mg/kg
- CCCC[N+](CC)(CCCC)CCCCCC[N+](CC)(CCCC)CCCC.[OH-].[OH-]: 22.4 mg/kg
- c1ccc(-c2ccccc2)cc1: > 5010 mg/kg
- CC(C)CCCCCCCOP(=S)([S-])OCCCCCCCC(C)C.CC(C)CCCCCCCOP(=S)([S-])OCCCCCCCC(C)C.[Zn+2]: > 8000 mg/kg
- CCCCC(CC)COP(=O)(O)O (centres undefined) [2-Ethylhexyl dihydrogen phosphate]: > 4640 mg/kg
- CCNc1ccccc1: > 2000 mg/kg
- CCCC(c1cc(C(C)(C)C)c(O)cc1C)c1cc(C(C)(C)C)c(O)cc1C: > 7940 mg/kg
- [S-]c1nc2ccccc2s1.[S-]c1nc2ccccc2s1.[Zn+2] [Zinc 2-mercaptobenzothiazolate]: > 2000 mg/kg
- CCCCCCCCCc1cc2ccccc2c(S(=O)(=O)O)c1CCCCCCCCC: > 2000 mg/kg
- Clc1ccccc1: > 7940 mg/kg
- S=c1[nH]c2ccccc2s1: > 7940 mg/kg
- CC(C#N)CCC#N (centres undefined): 776 mg/kg
- CC(C)(C)c1ccc(OP2OCC3(CO2)COP(Oc2ccc(C(C)(C)C)cc2C(C)(C)C)OC3)c(C(C)(C)C)c1 (centres undefined): > 2000 mg/kg
- CCCCC(CC)COC(=O)c1c(Br)c(Br)c(Br)c(Br)c1C(=O)OCC(CC)CCCC (centres undefined) [Bis(2-ethylhexyl) tetrabromophthalate]: > 3090 mg/kg
